- Assay System: T1, recombinant human FGF23 (R179Q) (human, UniProt Q9GZV9 25-251)
- T1 construct: also called rhFGF23(R179Q); hFGF23(R179Q)
- T1 sequence (looked up): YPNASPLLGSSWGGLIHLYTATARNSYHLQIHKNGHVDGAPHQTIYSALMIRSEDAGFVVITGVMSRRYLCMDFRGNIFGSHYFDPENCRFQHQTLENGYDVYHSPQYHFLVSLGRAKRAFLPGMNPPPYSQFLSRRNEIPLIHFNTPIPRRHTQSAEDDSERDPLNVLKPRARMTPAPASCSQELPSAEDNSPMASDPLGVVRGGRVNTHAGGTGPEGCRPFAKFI
- Test Details: SPR, antibody captured on hIgG chip, rhFGF23(R179Q) analyte
Measured Ratio (variant antibody KD/burosumab KD) accompanies every entry in the list below.
Give the figure only, with no unit attached.

UGX190 (antibody, human IgG1, kappa, V domains shown, also called HC:S59T, HC:V101L) VH: QVQLVQSGAEVKKPGASVKVSCKASGYTFTNHYMHWVRQAPGQGLEWMGIINPISGSTTNAQKFQGRVTMTRDTSTSTVYMELSSLRSEDTAVYYCARDILDAFDFWGQGTMVTVSS VL: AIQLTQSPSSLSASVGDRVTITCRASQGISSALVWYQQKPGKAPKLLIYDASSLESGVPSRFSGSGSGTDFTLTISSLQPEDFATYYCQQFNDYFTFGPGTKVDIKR ... 0

*Q* Endpoint output: Ratio (variant antibody KD/burosumab KD) of UGX135 (antibody, human IgG1, kappa, V domains shown, also called LC:N92D) VH: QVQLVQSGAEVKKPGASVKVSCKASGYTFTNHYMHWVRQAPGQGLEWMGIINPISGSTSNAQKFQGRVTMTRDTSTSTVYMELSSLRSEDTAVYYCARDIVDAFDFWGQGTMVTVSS VL: AIQLTQSPSSLSASVGDRVTITCRASQGISSALVWYQQKPGKAPKLLIYDASSLESGVPSRFSGSGSGTDFTLTISSLQPEDFATYYCQQFDDYFTFGPGTKVDIKR . Value?
*A* 1
